EC50 values by entry
- Tested on: normal human lung fibroblast Wi-38 cell line
- experimental_details: MTT cytotoxicity on normal cells
- Format: cell-based
- reported_conditions: Homo sapiens; Wi-38, 72 h, MTT, 50% cell viability; mean ± SEM
Remember to quote the unit after the number.

See these solved cases before continuing.
COc1ccc2nc(N3CCOCC3)c(-c3cc(-c4cccc(O)c4)[nH]c(=O)c3C#N)cc2c1; 717 nM
COc1ccc(NC(=O)COc2nc(-c3cccc(O)c3)cc(-c3cc4cc(Cl)ccc4nc3N3CCOCC3)c2C#N)cc1 [11f]; 181 nM
COc1ccc2nc(N3CCOCC3)c(-c3cc(-c4cccc(OC(C)=O)c4)[nH]c(=O)c3C#N)cc2c1; 137 nM
COc1ccc2[nH]c(=O)c(-c3cc(-c4cccc(O)c4)[nH]c(=O)c3C#N)cc2c1 [13c]; 34.8 nM
COc1ccc(NC(=O)COc2nc(-c3cccc(O)c3)cc(-c3cc4ccccc4nc3N3CCOCC3)c2C#N)cc1 [11c]; 101 nM
N#Cc1c(-c2cc3cc(Cl)ccc3nc2N2CCCCC2)cc(-c2cccc(O)c2)[nH]c1=O; 27.6 nM

Input line: Query (molecule): "N#Cc1c(-c2cc3cc(Cl)ccc3nc2N2CCOCC2)cc(-c2cccc(O)c2)nc1S" ; field requested: EC50
Output line: 138 nM

Input line: Cool, now "N#Cc1c(-c2cc3ccccc3nc2N2CCCCC2)cc(-c2cccc(O)c2)[nH]c1=O"
Output line: 29.9 nM

Input line: Same thing, different molecule: COc1ccc(NC(=O)COc2nc(-c3cccc(O)c3)cc(-c3cc4cc(OC)ccc4nc3N3CCOCC3)c2C#N)cc1 [11i]
Output line: 258 nM

Input line: Request: "N#Cc1c(-c2cc3ccccc3nc2N2CCOCC2)cc(-c2cccc(O)c2)[nH]c1=O"
Output line: 60.3 nM

---

Entries with their measured IC50, system UniProt P11309:
Give just the number in nM; leave the unit off.

Below are worked cases with known answers.
N#Cc1c(-c2cc3ccccc3[nH]c2=O)cc(-c2cccc(O)c2)nc1S [14a]; 385
COc1ccc2[nH]c(=O)c(-c3cc(-c4cccc(O)c4)[nH]c(=O)c3C#N)cc2c1 [13c]; 7780

Then this compound:
Input line: Give the measured IC50 of N#Cc1c(-c2cc3ccccc3[nH]c2=O)cc(-c2cccc(O)c2)[nH]c1=O [13a] .
Output line: 1270

---

- Test system: prostate cancer cell line (PC-3)
- experimental_details: MTT anticancer activity, PC-3
- Assay type: cell-based, human
- reported_conditions: Homo sapiens, 72 h, PC-3, 72 h, mean ± SEM
observation_type: pIC50
On this scale, pIC50 is minus log10 of a concentration expressed in M (mol/L).

COc1ccc(NC(=O)COc2nc(-c3cccc(O)c3)cc(-c3cc4ccccc4nc3N3CCOCC3)c2C#N)cc1 [11c]; 6.80
N#Cc1c(-c2cc3ccccc3nc2N2CCCCC2)cc(-c2cccc(O)c2)nc1S; 6.87
N#Cc1c(-c2cc3ccccc3nc2N2CCOCC2)cc(-c2cccc(O)c2)nc1OCC(=O)Nc1ccc(Cl)cc1 [11b]; 6.89
COc1ccc2nc(N3CCCCC3)c(-c3cc(-c4cccc(O)c4)[nH]c(=O)c3C#N)cc2c1; 7.35
N#Cc1c(-c2cc3ccccc3nc2N2CCOCC2)cc(-c2cccc(O)c2)nc1OCC(=O)Nc1ccccc1 [11a]; 6.80

Input line: Report pIC50 for COc1ccc2[nH]c(=O)c(-c3cc(-c4cccc(O)c4)[nH]c(=O)c3C#N)cc2c1 [13c] tested on prostate cancer cell line (PC-3).
Output line: 7.65

Input line: "CC(=O)Oc1cccc(-c2cc(-c3cc4ccccc4nc3N3CCOCC3)c(C#N)c(=O)[nH]2)c1" ?
Output line: 6.85

---

In this section we review reported Caco-2 SI values for a set of compounds.
- System: Colon cancer cells (Caco-2)
- experimental_details: MTT anticancer activity, Caco-2
- Format: cell-based, human
- reported_conditions: selectivity index, Wi-38 versus Caco-2
Returns: the value as a bare number; no unit string appended.

Input line: Request: Caco-2 SI, test system Colon cancer cells (Caco-2), entry N#Cc1c(-c2cc3cc(Cl)ccc3[nH]c2=O)cc(-c2cccc(O)c2)[nH]c1=O [13b]
Output line: 1.005

Input line: Would you mind doing N#Cc1c(-c2cc3ccccc3[nH]c2=O)cc(-c2cccc(O)c2)nc1N [15a] as well?
Output line: 1.058

Input line: Next record, please: N#Cc1c(-c2cc3ccccc3[nH]c2=O)cc(-c2cccc(O)c2)[nH]c1=O [13a]
Output line: 1.118

Input line: Now consider "COc1ccc2nc(N3CCOCC3)c(-c3cc(-c4cccc(O)c4)nc(OCC(=O)O)c3C#N)cc2c1" and answer again.
Output line: 5.247
